System Under Test: T1, 4H319-bH
T1 chain: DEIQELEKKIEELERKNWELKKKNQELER
Method: two-hybrid library CCNG1;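 also: natural log of median RNA to DNA barcode read ratio; higher means stronger binding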
# label = Fulfilled if interaction score >= -1 else Not fulfilled

Problem: Quick check, interaction score >= -1? DKIQELKKENEELEREIWELEKENQELKR [4H2692-bH]
Solution: Not fulfilled

Problem: Quick check, interaction score >= -1? DKIQELEKENEELERKIWELKKKNQELER [4H2223-bH]
Solution: Fulfilled

Problem: Quick check, interaction score >= -1? DEIQELEKENEELERKNWELEKKIQELKR [4H182-bH]
Solution: Fulfilled

Problem: Quick check, interaction score >= -1? DKIQELKKKNEELKRKNWELEKEIQELER [4H3057-bH]
Solution: Not fulfilled

Problem: Quick check, interaction score >= -1? DKIQELEKENEELERKNWELKKEIQELER [4H2233-bH]
Solution: Fulfilled

Problem: Quick check, interaction score >= -1? DKIQELEKEIEELKRENWELKKKNQELER [4H2143-bH]
Solution: Not fulfilled

Problem: Quick check, interaction score >= -1? DKIQELEKKNEELEREIWELEKKIQELKR [4H2438-bH]
Solution: Not fulfilled

Problem: Quick check, interaction score >= -1? DKIQELKKKIEELERENWELEKKNQELER [4H2839-bH]
Solution: Fulfilled

Problem: Quick check, interaction score >= -1? DKIQELEKEIEELKRENWELEKKIQELKR [4H2134-bH]
Solution: Fulfilled
